systemTested: Cytochrome P450 1A2 (Homo sapiens)
experimentDescription: p450-cyp1a2 (AID 410)
assayContext: recombinant CYP1A2, luciferin-ME demethylation, luminescence; series mostly up to 57 µM
Inconclusive results are not listed. Active and inactive are the calls of the source. The call rests on the fitted dose curve.
Reply using exactly one outcome from active, inactive

Record excerpt, results attached:
COc1cc2c(cc1OC)-c1c(OC)c(OC)cc3ccnc(c13)C2=O : active
CC(C)C[C@@H](CC(=O)N[C@@H](CCC(=O)O)CC(=O)O)NC(=O)[C@@H]1CCCC[C@H]1NC(=O)C[C@H](CCCN)NC(=O)C[C@H](CO)NC(=O)[C@@H]1CCCC[C@H]1N : inactive
CC(C)C[C@H](NC(=O)[C@@H](NC(=O)N[C@@H](Cc1ccccc1)C(=O)O)[C@H]1CCN=C(N)N1)C(=O)N[C@H](C=O)Cc1ccccc1 : inactive

Exam item: For `Cc1c2c(nc3ccccc13)-c1cccc(=O)n1C2` , what call appears in the results of this test?
Marked response: active

Exam item: Moving on to the next compound: `COc1cc2oc(-c3ccccc3)cc(=O)c2cc1OC`
Marked response: active

Exam item: Moving on to the next compound: `CNC(=O)[C@@H]1O[C@@H](n2cnc3c(NCc4cccc(I)c4)ncnc32)[C@H](O)[C@@H]1O`
Marked response: inactive

Exam item: Moving on to the next compound: `O=C(NCc1cc(F)cc2c1OCCO2)[C@H]1C[C@@H]1[C@H](NP(=O)(c1ccccc1)c1ccccc1)c1ccccc1`
Marked response: active

Exam item: Moving on to the next compound: CCCC[C@@H]1C[C@H]1C(NC(=O)c1ccco1)c1ccc(-c2ccccc2)cc1 (stereo partly drawn)
Marked response: active

====

Test system: TAB165
experimentDescription: qHTS profiling for inhibitors of Plasmodium falciparum proliferation (AID 504749); further: nearly all actives have a fitted effect of over 60% in size; further: potency means the concentration at half of the fitted maximal effect
assayContext: P. falciparum in erythrocytes, SYBR Green DNA, 72 h; series mostly up to 28.7 µM
Inconclusive results are not listed. Activity calls are given as the source filed them. Calls come from the whole dose curve; as a rule, active = well fitted inhibition curve with a large enough effect; inconclusive = small, poorly fitted or top-dose-only effect; inactive = flat fitted curve, though single readings scatter.
propertyName: Potency

Example entries and their recorded answers appear below.
CO[C@H]1OC2O[C@@]3(C)CC[C@H]4[C@H](C)CC[C@@H]([C@H]1C)[C@@]24OO3 (some centres undefined) : 22.4 nM (active)
CC1(C)OC[C@@H]2O[C@@]3(C(=O)O)OC(C)(C)O[C@@H]3[C@@H]2O1 : inactive
CC(C)CCCC(C)C1CC(=O)C2=C3CCC4CC(O)CCC4(C)C3CCC21C (centres undefined) : inactive
C=C1NC(=O)c2cc(CN(C)c3ccc(C(=O)N[C@@H](CCC(=O)O)C(=O)O)s3)ccc2N1 : inactive
CC[C@H](C)[C@H]1O[C@]2(CC[C@@H]1C)C[C@@H]1C[C@@H](C/C=C(\C)[C@H](O[C@@H]3C[C@H](OC)[C@H](O[C@@H]4C[C@H](OC)[C@@H](O)[C@H](C)O4)[C@H](C)O3)[C@@H](C)/C=C/C=C3\CO[C@@H]4[C@H](O)C(C)=C[C@@H](C(=O)O1)[C@]34O)O2 : 794 nM (active)
CC1OC(OC2C(O)CC(OC3C(O)CC(OC4CCC5(C)C(CCC6C5CCC5(C)C(C7=CC(=O)OC7)CCC65O)C4)OC3C)OC2C)CC(O)C1O (centres undefined) : inactive

Exam item: Kindly state the measured Potency obtained for `C[C@]12CCC(=O)C=C1[C@@H]1C[C@H]1[C@H]1[C@@H]3[C@@H]4C[C@H]4[C@@]4(CCC(=O)O4)[C@@]3(C)CC[C@@H]12` with TAB165.
Marked response: inactive

====

System: CP217
experimentDescription: qHTS profiling for inhibitors of Plasmodium falciparum proliferation (AID 504749); further: nearly all actives have a fitted effect of over 60% in size
assayContext: P. falciparum in erythrocytes, SYBR Green DNA, 72 h; series mostly up to 28.7 µM
Results filed as inconclusive are left out. The source made the active and inactive calls. The call rests on the fitted dose curve; in most records, active means well fitted inhibition curve with a large enough effect; inconclusive means small, poorly fitted or top-dose-only effect; inactive means flat fitted curve, though single readings scatter.
Reply using exactly one outcome from 1 (yes) (active), 0 (no) (inactive)

Record excerpt, results attached:
CC(C)(C)NC[C@H](O)CSc1nc(-c2ccc(C(N)=O)s2)cs1 : 0 (no)
CC1OC(OC2CCC3(C)C(CCC4C3CC(O)C3(C)C(C5=CC(=O)OC5)CCC43O)C2)CC(O)C1OC1CC(O)C(OC2CC(O)C(OC3OC(CO)C(O)C(O)C3O)C(C)O2)C(C)O1 (stereo unspecified) : 0 (no)
COc1cc2c(cc1O)CCN[C@@]21CS[C@H]2c3c(OC(C)=O)c(C)c4c(c3C(COC1=O)N1C2C2c3c(cc(C)c(OC)c3O)CC([C@@H]1O)N2C)OCO4 (stereo partly specified) : 1 (yes)

Exam item: For Nc1nc(/C(=C/CC(=O)O)C(=O)NC2C(=O)N3C(C(=O)O)=CCSC23)cs1 (stereo unspecified) , what call appears in the results of this test?
Marked response: 0 (no)

Exam item: Moving on to the next compound: COC(=O)C1[C@@H](OC)C(OC(=O)COc2ccc(OC)cc2)C[C@@H]2CN3CCc4c([nH]c5cc(OC)ccc45)[C@H]3C[C@H]12 (stereo partly specified)
Marked response: 1 (yes)

Exam item: Moving on to the next compound: `CO/N=C(/C(=O)N[C@@H]1C(=O)N2C(C(=O)O)=C(CSc3cnns3)CS[C@H]12)c1csc(N)n1`
Marked response: 0 (no)

Exam item: Moving on to the next compound: OC[C@@H](O)C(O[C@@H]1O[C@@H](CO)[C@H](O)[C@H](O)[C@H]1O)[C@H](O)[C@@H](O)CO (stereo partly specified)
Marked response: 0 (no)

Exam item: Moving on to the next compound: `Clc1ccc(CS[C@@H](Cn2ccnc2)c2ccc(Cl)cc2Cl)cc1`
Marked response: 1 (yes)

====

Test system: CP329
experimentDescription: qHTS profiling for inhibitors of Plasmodium falciparum proliferation (AID 504749); further: nearly all actives have a fitted effect of over 60% in size
assayContext: P. falciparum in erythrocytes, SYBR Green DNA, 72 h; series mostly up to 28.7 µM
Inconclusive results are not listed. Active and inactive are the calls of the source. Calls come from the whole dose curve; as a rule, active = well fitted inhibition curve with a large enough effect; inconclusive = small, poorly fitted or top-dose-only effect; inactive = flat fitted curve, though single readings scatter.
Reply using exactly one outcome from active, inactive

Record excerpt, results attached:
OCC(O)C(O)C(O)C(O)CO (centres undefined) : inactive
NC(=O)OC[C@@H]1[C@H](NC(=O)/C(=N/OCC(=O)O)c2csc(N)n2)C(=O)N1S(=O)(=O)O : inactive

Exam item: For `Cc1cncc(C(=O)O)[n+]1[O-]` , what call appears in the results of this test?
Marked response: inactive

Exam item: Moving on to the next compound: CC1OC(OC2CCC3(C)C(CCC4C3CC(O)C3(C)C(C5=CC(=O)OC5)CCC43O)C2)CC(O)C1OC1CC(O)C(OC2CC(O)C(OC3OC(CO)C(O)C(O)C3O)C(C)O2)C(C)O1 (centres undefined)
Marked response: inactive

Exam item: Moving on to the next compound: `O=C(O)[C@H]1C[C@@H](CP(=O)(O)O)CCN1`
Marked response: inactive

====

System: CP247
experimentDescription: qHTS profiling for inhibitors of Plasmodium falciparum proliferation (AID 504749); further: nearly all actives have a fitted effect of over 60% in size
assayContext: P. falciparum in erythrocytes, SYBR Green DNA, 72 h; series mostly up to 28.7 µM
Records with an inconclusive call do not appear. Calls of active or inactive are those of the source. Calls follow the shape of the dose curve; as a rule, active = well fitted inhibition curve with a large enough effect; inconclusive = small, poorly fitted or top-dose-only effect; inactive = flat fitted curve, though single readings scatter.
Reply using exactly one outcome from y = active, n = inactive

CCCCN1CC(O)C(O)C(O)C1CO (stereo not drawn) : n
CC1(Cn2ccnn2)[C@H](C(=O)O)N2C(=O)C[C@H]2S1(=O)=O (stereo partly drawn) : n
CC1C(=O)C(=O)C=CN1C (stereo not drawn) : n
C=C1C(=O)O[C@@H]2[C@@H]1CC/C(C)=C\CC[C@@]1(C)O[C@H]21 : y
C[C@@H](O)[C@@H]1C(=O)N2C(C(=O)O)=C([C@H]3CCCO3)S[C@H]12 : n

Here is the next item to consider.
Exam item: For `C[C@H](O)[C@@H]1C(=O)N2C(C(=O)O)=C(SCCN=CN)C[C@@H]12` , what call appears in the results of this test?
Marked response: n

====

activity change, negative = inhibition values for the molecules below.
experimentDescription: AP1 Signaling Pathway (AID 357);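 further: ME-180 reporter cells stimulated with EGF at its EC50 level; on the % scale 0 is the no-effect control and ±100 the full control effect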
assayContext: ME-180 (cervical carcinoma) AP-1-bla reporter, EGF-induced, beta-lactamase ratio, 5 h; at 17.2 µM (top of the series) unless noted
Experimental: NCGC Assay Overview: Activator protein-1 (AP-1), a transcription factor, plays an important role in tumor genesis by regulating genes involved in cell proliferation, differentiation, apoptosis, and angiogenesis. AP-1 activity is induced by a complex network of signaling pathways that involves extracellular signals, such as growth factors. […] Library compounds were measured for their ability to modulate positively or negatively the action of EC50 EGF on reporter gene activity. […]
Results filed as inconclusive are left out. Activity calls are given as the source filed them. Calls follow the shape of the dose curve; as a rule, active = well fitted curve in either direction with a large enough effect (not every such curve was filed as active); inconclusive = small, poorly fitted or top-dose-only effect, or another doubt; inactive = flat fitted curve, though single readings scatter.

O=C(C/C(=N/O)c1ccccc1O)C(F)F : 15.8% (inactive)
COc1ccccc1N1CCN(C2CCN(C(=O)c3cccs3)CC2)CC1 : 4.38% (inactive)
Cc1nnc(SCCC#N)n(CCC#N)c1=O : 25.1% (inactive)
Cc1cccc(-c2nnc3n2N=C(c2ccccc2)CS3)c1 : -18.5% (inactive)
Cc1c(Cl)c(C(F)(F)F)nn1CC(=O)N1CCSCC1 : 9.46% (inactive)

Exam item: Consider the molecule `CN1C[C@@H](C(=O)N[C@]2(C)O[C@]3(O)[C@H]4CCCN4C(=O)[C@H](Cc4ccccc4)N3C2=O)C[C@H]2c3cccc4[nH]cc(c34)C[C@@H]21` and give its measured activity change, negative = inhibition.
Marked response: -19.9% [at 38 µM] (inactive)

Exam item: Moving on to the next molecule: CCOC(=O)C1=C(C(C)=O)C(c2cccnc2)C(C#N)=C(N)O1 (configuration not stated)
Marked response: 29.3% (inactive)

Exam item: Moving on to the next molecule: CCN(CC)CCCN1C(=O)C(=O)/C(=C(/O)c2ccc(OC)cc2)C1c1ccco1 (configuration not stated)
Marked response: 9.88% (inactive)

Exam item: Moving on to the next molecule: `CCCCNC1=C(Br)C(=O)CC(C)(C)C1`
Marked response: 4.07% (inactive)

Exam item: Moving on to the next molecule: `CCc1nc2n[nH]c(N)c2c2c1CCCC2`
Marked response: -12.2% (inactive)

Exam item: Moving on to the next molecule: `Cc1cc(C)c(S(=O)(=O)O)c(C)n1`
Marked response: 6.1% (inactive)

Exam item: Moving on to the next molecule: `C=CCn1c(-c2ccc(OC)c(OC)c2)n[nH]c1=S`
Marked response: 1.93% (inactive)
